Organism: Rattus norvegicus
Experimental protocol: DrugMatrix - Regimen: Daily Repeat
Assay type: toxicity, organism-based, Sprague-Dawley
Set-up: regimen Daily Repeat, gender Male, age 6-8 weeks
Condition set: in vivo, po, 1500 mg/kg, 72 h, tissue Plasma, route oral GAVAGE, dose level High, time 3 day, vehicle .5 % CMC
compounds and their reported PHOSPHORUS
Value kind: PHOSPHORUS (mg/dL)

1) COc1ccc(Cl)cc1C(=O)NCCc1ccc(S(=O)(=O)NC(=O)NC2CCCCC2)cc1 [GLYBURIDE]    9.57
2) COc1cc(/C=C/C(=O)O)ccc1O [FERULATE]    10.73
3) Cc1ccc(S(=O)(=O)NC(=O)NN2CCCCCC2)cc1 [TOLAZAMIDE]    9.5
4) CC[C@H]1OC(=O)[C@H](C)[C@@H](O[C@H]2C[C@@](C)(OC)[C@@H](O)[C@H](C)O2)[C@H](C)[C@@H](O[C@@H]2O[C@H](C)C[C@H](N(C)C)[C@H]2O)[C@](C)(O)C[C@@H](C)C(=O)[C@H](C)[C@@H](O)[C@]1(C)O    12.3
5) O=C(O)CCc1nc(-c2ccccc2)c(-c2ccccc2)o1    11.17

====

MEAN CORPUSCULAR HEMOGLOBIN reference
Organism: Rattus norvegicus
Experimental protocol: DrugMatrix - Regimen: Daily Repeat
Assay type: toxicity, organism-based, Sprague-Dawley
Parameters: regimen Daily Repeat, gender Male, age 6-8 weeks
Condition set: in vivo, po, 0 mg/kg, 72 h, tissue Blood, route oral GAVAGE, dose level Control, time 3 day, vehicle 100 % WATER
Value kind: MEAN CORPUSCULAR HEMOGLOBIN (pg)

1) CN1C(=O)OC(C)(C)C1=O [TRIMETHADIONE]    24.38
2) CCN(CC)C(=S)SSC(=S)N(CC)CC    25.92
3) Cc1cn([C@H]2C=C[C@@H](CO)O2)c(=O)[nH]c1=O [STAVUDINE]    24.3
4) CC(Cl)(Cl)Cl [TRICHLOROETHANE]    24.88
5) C[N+](C)(C)CCOC(N)=O.[Cl-] [CARBACHOL]    24.3
6) C1CCN2C[C@@H]3C[C@@H](CN4CCCC[C@@H]34)[C@H]2C1 [SPARTEINE]    24.88
7) Cc1cc(C(C)(C)C)c(O)c(C)c1CC1=NCCN1 [OXYMETAZOLINE]    25.62
8) CCC1(c2ccccc2)C(=O)NC(=O)NC1=O [PHENOBARBITAL]    24.5
9) NN [HYDRAZINE]    24.42

====

Species: Rattus norvegicus
Experimental protocol: DrugMatrix - Regimen: Daily Repeat
Type: toxicity, organism-based, Sprague-Dawley
Parameters: regimen Daily Repeat, gender Male, age 6-8 weeks
Condition set: in vivo, po, 0 mg/kg, 120 h, tissue Plasma, route oral GAVAGE, dose level Control, time 5 day, […]
Listed molecules paired with reported CARBON DIOXIDE
Value kind: CARBON DIOXIDE (mmol/L)

1) CO[C@H]1O[C@@H]2O[C@@]3(C)CC[C@H]4[C@H](C)CC[C@@H]([C@H]1C)[C@@]24OO3    26.17
2) Oc1ncnc2[nH]ncc12 [ALLOPURINOL]    27.17
3) O=C(O)COC(=O)Cc1ccccc1Nc1c(Cl)cccc1Cl [ACECLOFENAC]    30.5
4) Cc1cccc(C)c1NC(=O)C(C)N (stereo not drawn) [TOCAINIDE]    30.83
5) CC(C)(c1ccc(O)cc1)c1ccc(O)cc1 [BISPHENOL A]    26.4
6) c1ccc2c(c1)Nc1ccccc1S2 [PHENOTHIAZINE]    27.17
7) CCOC(=O)C1=C(C)NC(C)=C(C(=O)OCC)C1c1ccccc1/C=C/C(=O)OC(C)(C)C [LACIDIPINE]    37
8) COC(=O)Nc1nc2ccc(C(=O)c3ccccc3)cc2[nH]1 [MEBENDAZOLE]    30.5
9) CC#C[C@]1(O)CC[C@H]2[C@@H]3CCC4=CC(=O)CCC4=C3[C@@H](c3ccc(N(C)C)cc3)C[C@@]21C [MIFEPRISTONE]    31.83
10) COc1ccccc1OCCNCC(O)COc1cccc2[nH]c3ccccc3c12 (stereo not drawn) [CARVEDILOL]    30.5
11) O=C(Nc1ccc(Cl)c(Cl)c1)c1cc(Cl)cc(Cl)c1O [3,3',4',5-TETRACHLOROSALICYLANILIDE]    29.17
12) CS(=O)(=O)c1ccc(C2=C(c3ccccc3)C(=O)OC2)cc1 [ROFECOXIB]    27.17
13) CCC(C)(C)C(=O)O[C@H]1C[C@@H](C)C=C2C=C[C@H](C)[C@H](CC[C@@H]3C[C@@H](O)CC(=O)O3)[C@H]21 [SIMVASTATIN]    31.83

====

Species on record: Rattus norvegicus
Experimental protocol: DrugMatrix - Regimen: Daily Repeat
Type: toxicity, organism-based, Sprague-Dawley
Design: regimen Daily Repeat, gender Male, age 6-8 weeks
Condition set: in vivo, po, 0 mg/kg, 120 h, tissue Blood, route oral GAVAGE, dose level Control, time 5 day, vehicle 100 % WATER
Value kind: MEAN CORPUSCULAR VOLUME (fL)

1. CCC1(c2ccccc2)C(=O)NC(=O)NC1=O    63.12
2. C[N+](C)(C)CCOC(N)=O.[Cl-]    63.3
3. Cc1cc(C(C)(C)C)c(O)c(C)c1CC1=NCCN1    63.05
4. C1CCN2C[C@@H]3C[C@@H](CN4CCCC[C@@H]34)[C@H]2C1    63.15
5. CC(Cl)(Cl)Cl    63.15
6. CN1C(=O)OC(C)(C)C1=O    60.66
7. CCN(CC)C(=S)SSC(=S)N(CC)CC    63.23
8. NN [HYDRAZINE]    62.28
9. Cc1cn([C@H]2C=C[C@@H](CO)O2)c(=O)[nH]c1=O    63.3

====

Organism: Rattus norvegicus
Experimental protocol: DrugMatrix - Regimen: Daily Repeat
Type: toxicity, organism-based, Sprague-Dawley
Parameters: regimen Daily Repeat, gender Male, age 6-8 weeks
Condition set: in vivo, po, 1500 mg/kg, 120 h, tissue Plasma, route oral GAVAGE, dose level High, time 5 day, vehicle .5 % CMC
The following compounds are shown together with reported LACTATE DEHYDROGENASE values.
Value kind: LACTATE DEHYDROGENASE

1. CC[C@H]1OC(=O)[C@H](C)[C@@H](O[C@H]2C[C@@](C)(OC)[C@@H](O)[C@H](C)O2)[C@H](C)[C@@H](O[C@@H]2O[C@H](C)C[C@H](N(C)C)[C@H]2O)[C@](C)(O)C[C@@H](C)C(=O)[C@H](C)[C@@H](O)[C@]1(C)O    259.67 u/L
2. O=C(O)CCc1nc(-c2ccccc2)c(-c2ccccc2)o1    170.67 u/L
3. Cc1ccc(S(=O)(=O)NC(=O)NN2CCCCCC2)cc1 [TOLAZAMIDE]    114 u/L
4. COc1cc(/C=C/C(=O)O)ccc1O [FERULATE]    166.67 u/L

====

Species on record: Rattus norvegicus
Experimental protocol: DrugMatrix - Regimen: Daily Repeat
Format: toxicity, organism-based, Sprague-Dawley
Design: regimen Daily Repeat, gender Male, age 6-8 weeks
Condition set: in vivo, po, 0 mg/kg, 72 h, tissue Plasma, route oral GAVAGE, dose level Control, time 3 day, vehicle .5 % CMC
Measured CREATININE by item
Value kind: CREATININE (mg/dL)

1. Cl.NC[C@H]1CC[C@H](C(=O)Oc2ccc(CCC(=O)O)cc2)CC1 [CETRAXATE HYDROCHLORIDE]    0.21
2. CC(C)Cc1ccc([C@H](C)C(=O)O)cc1 [DEXIBUPROFEN]    0.55
3. CN(C)CCC=C1c2ccccc2COc2ccccc21 [DOXEPIN]    0.57
4. Nc1ccc(C(=O)O)c(O)c1 [AMINOSALICYLIC ACID]    0.55
5. CC(C)(C#N)c1cc(Cn2cncn2)cc(C(C)(C)C#N)c1 [ANASTROZOLE]    0.14

====

Species: Rattus norvegicus
Experimental protocol: DrugMatrix - Regimen: Daily Repeat
Type: toxicity, organism-based, Sprague-Dawley
Set-up: regimen Daily Repeat, gender Male, age 6-8 weeks
Condition set: in vivo, po, 0 mg/kg, 72 h, tissue Blood, route oral GAVAGE, dose level Control, time 3 day, vehicle 100 % WATER
Value kind: EOSINOPHIL (%)

1. C1CCN2C[C@@H]3C[C@@H](CN4CCCC[C@@H]34)[C@H]2C1 [SPARTEINE]    0.67
2. C[N+](C)(C)CCOC(N)=O.[Cl-] [CARBACHOL]    0
3. CN1C(=O)OC(C)(C)C1=O [TRIMETHADIONE]    0.5
4. CCN(CC)C(=S)SSC(=S)N(CC)CC    0.5
5. CCC1(c2ccccc2)C(=O)NC(=O)NC1=O [PHENOBARBITAL]    0.33
6. Cc1cn([C@H]2C=C[C@@H](CO)O2)c(=O)[nH]c1=O [STAVUDINE]    0
7. CC(Cl)(Cl)Cl [TRICHLOROETHANE]    0.67
8. Cc1cc(C(C)(C)C)c(O)c(C)c1CC1=NCCN1 [OXYMETAZOLINE]    0.83
9. NN [HYDRAZINE]    0.17
